The measured values listed here are drawn from patent US20250026721A1.

biological target: PIK3CA (Homo sapiens, UniProt P42336); construct: endogenous in cells; test: In vitro ELISA target engagement assay for PIK3CA in Jurkat cellular lysate (competition with PIK3CA Biotin Probe); details: 1 hour at rt, then 500 nM PIK3CA Biotin Probe, read-out: Elisa Target Engagement Assay (TE50)
Sequence (P42336 whole entry): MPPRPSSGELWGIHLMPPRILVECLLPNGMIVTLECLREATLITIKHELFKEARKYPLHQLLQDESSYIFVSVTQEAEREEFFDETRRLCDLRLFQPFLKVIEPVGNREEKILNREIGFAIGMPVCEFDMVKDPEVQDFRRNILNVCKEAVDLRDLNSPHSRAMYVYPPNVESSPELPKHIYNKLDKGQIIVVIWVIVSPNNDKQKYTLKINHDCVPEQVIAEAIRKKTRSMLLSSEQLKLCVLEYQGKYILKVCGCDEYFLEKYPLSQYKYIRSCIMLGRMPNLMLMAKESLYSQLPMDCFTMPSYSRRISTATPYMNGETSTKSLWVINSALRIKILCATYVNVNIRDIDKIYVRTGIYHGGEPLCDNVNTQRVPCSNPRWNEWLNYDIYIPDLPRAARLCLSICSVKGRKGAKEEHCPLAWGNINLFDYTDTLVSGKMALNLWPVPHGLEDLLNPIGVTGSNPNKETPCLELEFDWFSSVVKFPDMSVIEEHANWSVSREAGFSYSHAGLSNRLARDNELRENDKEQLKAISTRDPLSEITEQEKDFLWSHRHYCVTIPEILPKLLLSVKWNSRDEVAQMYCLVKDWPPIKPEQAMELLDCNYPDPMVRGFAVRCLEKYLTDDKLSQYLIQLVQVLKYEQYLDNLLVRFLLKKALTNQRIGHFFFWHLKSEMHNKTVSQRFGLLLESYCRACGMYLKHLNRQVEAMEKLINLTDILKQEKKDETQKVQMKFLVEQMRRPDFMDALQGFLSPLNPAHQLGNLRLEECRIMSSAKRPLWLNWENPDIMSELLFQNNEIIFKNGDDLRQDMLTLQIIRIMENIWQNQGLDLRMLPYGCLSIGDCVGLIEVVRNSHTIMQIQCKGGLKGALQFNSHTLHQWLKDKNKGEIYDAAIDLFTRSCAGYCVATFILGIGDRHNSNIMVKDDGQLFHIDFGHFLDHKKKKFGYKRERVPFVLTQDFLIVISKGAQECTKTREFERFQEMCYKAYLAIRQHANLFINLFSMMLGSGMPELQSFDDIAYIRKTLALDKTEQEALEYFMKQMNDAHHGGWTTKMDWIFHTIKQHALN
Sequence (P27986 whole entry partner): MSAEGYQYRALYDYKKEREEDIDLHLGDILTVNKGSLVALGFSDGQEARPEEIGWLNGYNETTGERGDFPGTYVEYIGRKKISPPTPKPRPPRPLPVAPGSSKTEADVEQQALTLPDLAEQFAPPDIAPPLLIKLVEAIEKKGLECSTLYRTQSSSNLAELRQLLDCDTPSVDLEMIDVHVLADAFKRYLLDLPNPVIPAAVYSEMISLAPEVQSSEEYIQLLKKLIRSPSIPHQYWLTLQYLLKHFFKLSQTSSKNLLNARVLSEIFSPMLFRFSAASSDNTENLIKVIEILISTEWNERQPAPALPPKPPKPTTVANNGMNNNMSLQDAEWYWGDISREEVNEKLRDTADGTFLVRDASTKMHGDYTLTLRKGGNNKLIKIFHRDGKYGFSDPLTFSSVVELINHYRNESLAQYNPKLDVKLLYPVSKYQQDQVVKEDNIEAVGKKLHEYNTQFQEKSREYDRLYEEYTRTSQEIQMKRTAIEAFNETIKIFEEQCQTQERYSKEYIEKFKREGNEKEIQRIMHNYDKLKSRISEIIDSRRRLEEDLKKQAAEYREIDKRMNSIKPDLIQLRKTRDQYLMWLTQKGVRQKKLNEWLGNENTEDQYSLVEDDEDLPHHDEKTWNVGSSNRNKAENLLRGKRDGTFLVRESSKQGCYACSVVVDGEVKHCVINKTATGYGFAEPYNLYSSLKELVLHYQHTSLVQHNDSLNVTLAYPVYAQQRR
pIC50: −log10 of the molar value.
Assay endpoint: pIC50

Please review the following examples before continuing.
* C[C@H](/C=C\S(C)(=O)=O)NC(=O)[C@]1(F)CCN(C(=O)[C@H]2CN(CC(F)(F)F)C[C@H]2c2ccccc2Cl)[C@@H](C)C1 (single isomer, unassigned) | 6.36
* COc1ccc(S(=O)(=O)N2CCC(F)(C(=O)N[C@@H](C)/C=C\S(C)(=O)=O)CC2)c(-c2cccc(Cl)c2)c1 | 7.05
* C[C@H](/C=C/S(C)(=O)=O)NC(=O)[C@@]1(F)CCCN(C(=O)[C@H]2CN(CC(F)(F)F)C[C@H]2c2ccccc2Cl)CC1 | 6.10
* C[C@H]1C[C@](F)(C(=O)N[C@@H]2C=CS(=O)(=O)C2)CCN1C(=O)[C@H]1CN(CC(F)(F)F)C[C@H]1c1ccccc1Cl (single isomer, unassigned) | 6.56

[A] C[C@H](/C=C\S(C)(=O)=O)NC(=O)C1(F)CCN(S(=O)(=O)c2ccc(N3CCOCC3)cc2-c2ccccc2Cl)CC1
[B] CC(O)c1ccc(S(=O)(=O)N2CCC(F)(C(=O)N[C@H](C)/C=C/C(=O)N3CC(F)(F)C3)CC2)c(-c2ccccc2Cl)c1 (stereo partly drawn)
Task: Please indicate which entry, A or B , has the lower recorded pIC50 value. Please identify the chosen entry by its label.
Result: A
